# binding signal (normalized ELISA) values compiled below
System: TALE test backbone, repeat 5 RVD AN (synthetic (Xanthomonas TALE))
Settings: ELISA

>  <construct.sequence>
TTGACAATCCT (double strand) [CAA target]

>  <binding signal (normalized ELISA)>
0.51

$$$$
>  <construct.sequence>
TTGACTATCCT (double strand) [CTA target]

>  <binding signal (normalized ELISA)>
0.01

$$$$
>  <construct.sequence>
TTGACCATCCT (double strand) [CCA target]

>  <binding signal (normalized ELISA)>
0

$$$$
>  <construct.sequence>
TTGACGATCCT (double strand) [CGA target]

>  <binding signal (normalized ELISA)>
0.87

$$$$

---

Measured binding signal (normalized ELISA) of individual entries
System: TALE test backbone, repeat 5 RVD AE (synthetic (Xanthomonas TALE))
Settings: ELISA

>  <construct.sequence>
TTGACCATCCT (double strand) [CCA target]

>  <study.system>
TALE test backbone, repeat 5 RVD AE (synthetic (Xanthomonas TALE))

>  <binding signal (normalized ELISA)>
0

$$$$
>  <construct.sequence>
TTGACGATCCT (double strand) [CGA target]

>  <study.system>
TALE test backbone, repeat 5 RVD AE (synthetic (Xanthomonas TALE))

>  <binding signal (normalized ELISA)>
0

$$$$
>  <construct.sequence>
TTGACTATCCT (double strand) [CTA target]

>  <study.system>
TALE test backbone, repeat 5 RVD AE (synthetic (Xanthomonas TALE))

>  <binding signal (normalized ELISA)>
0

$$$$
>  <construct.sequence>
TTGACAATCCT (double strand) [CAA target]

>  <study.system>
TALE test backbone, repeat 5 RVD AE (synthetic (Xanthomonas TALE))

>  <binding signal (normalized ELISA)>
0

$$$$

---

System: TALE test backbone, repeat 5 RVD IG (synthetic (Xanthomonas TALE))
Settings: ELISA
binding signal (normalized ELISA) for assorted sequences

>  <construct.sequence>
TTGACGATCCT (double strand) [CGA target]

>  <study.system>
TALE test backbone, repeat 5 RVD IG (synthetic (Xanthomonas TALE))

>  <binding signal (normalized ELISA)>
0.01

$$$$
>  <construct.sequence>
TTGACAATCCT (double strand) [CAA target]

>  <study.system>
TALE test backbone, repeat 5 RVD IG (synthetic (Xanthomonas TALE))

>  <binding signal (normalized ELISA)>
0.04

$$$$
>  <construct.sequence>
TTGACTATCCT (double strand) [CTA target]

>  <study.system>
TALE test backbone, repeat 5 RVD IG (synthetic (Xanthomonas TALE))

>  <binding signal (normalized ELISA)>
0.68

$$$$
>  <construct.sequence>
TTGACCATCCT (double strand) [CCA target]

>  <study.system>
TALE test backbone, repeat 5 RVD IG (synthetic (Xanthomonas TALE))

>  <binding signal (normalized ELISA)>
0.02

$$$$

---

Test system: TALE test backbone, repeat 5 RVD GG (synthetic (Xanthomonas TALE))
Details: ELISA

>  <construct.sequence>
TTGACGATCCT (double strand) [CGA target]

>  <binding signal (normalized ELISA)>
0.25

$$$$
>  <construct.sequence>
TTGACCATCCT (double strand) [CCA target]

>  <binding signal (normalized ELISA)>
0.35

$$$$
>  <construct.sequence>
TTGACTATCCT (double strand) [CTA target]

>  <binding signal (normalized ELISA)>
1.52

$$$$
>  <construct.sequence>
TTGACAATCCT (double strand) [CAA target]

>  <binding signal (normalized ELISA)>
0.49

$$$$
